# ASSAY_SYSTEM: Induced myeloid leukemia cell differentiation protein Mcl-1 (Homo sapiens, UniProt Q07820)
# Sequence (Q07820 whole entry): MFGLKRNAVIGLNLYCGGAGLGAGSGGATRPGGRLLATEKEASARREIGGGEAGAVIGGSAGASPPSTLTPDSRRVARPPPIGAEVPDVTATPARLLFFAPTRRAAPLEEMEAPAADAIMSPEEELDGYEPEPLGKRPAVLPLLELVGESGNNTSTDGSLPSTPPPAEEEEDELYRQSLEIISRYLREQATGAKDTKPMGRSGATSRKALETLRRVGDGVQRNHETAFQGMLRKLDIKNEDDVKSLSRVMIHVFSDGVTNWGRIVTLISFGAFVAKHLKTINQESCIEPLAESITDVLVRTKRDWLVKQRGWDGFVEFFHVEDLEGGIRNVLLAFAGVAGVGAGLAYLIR
pKi: −log10 of the molar value.
# label = bin(measured pKi), where bins are low = under 5, moderate = from 5 up to 6, high = 6 and over

SMILES_NOTATION	ASSAY_SYSTEM	LABEL_VALUE
COc1cccc(CCSc2ccc(NS(=O)(=O)N3CCN(c4ccc(C(C)(C)C)cc4)CC3)c(C(=O)O)c2)c1	Induced myeloid leukemia cell differentiation protein Mcl-1 (Homo sapiens, UniProt Q07820)	high
O=C(O)c1cc(SCCc2ccccc2)ccc1NS(=O)(=O)CCc1ccccc1	Induced myeloid leukemia cell differentiation protein Mcl-1 (Homo sapiens, UniProt Q07820)	moderate
O=C(O)c1cc(SCCc2ccccc2)ccc1NS(=O)(=O)c1ccc(C2CCCCC2)cc1	Induced myeloid leukemia cell differentiation protein Mcl-1 (Homo sapiens, UniProt Q07820)	high
O=C(O)c1cc(NCCc2ccccc2)ccc1NS(=O)(=O)c1ccccc1	Induced myeloid leukemia cell differentiation protein Mcl-1 (Homo sapiens, UniProt Q07820)	moderate
O=C(CCCSc1ccc(NS(=O)(=O)c2ccccc2)c(C(=O)O)c1)Nc1ccccc1	Induced myeloid leukemia cell differentiation protein Mcl-1 (Homo sapiens, UniProt Q07820)	low
O=C(O)c1cc(OCCc2ccccc2)ccc1NS(=O)(=O)c1ccccc1	Induced myeloid leukemia cell differentiation protein Mcl-1 (Homo sapiens, UniProt Q07820)	moderate

* * *

Sequence of the target: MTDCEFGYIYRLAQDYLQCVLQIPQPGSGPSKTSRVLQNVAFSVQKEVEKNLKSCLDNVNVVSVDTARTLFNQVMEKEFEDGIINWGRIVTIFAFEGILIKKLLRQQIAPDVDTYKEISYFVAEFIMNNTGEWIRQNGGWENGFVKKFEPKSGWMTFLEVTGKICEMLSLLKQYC
pKi: −log10 of the molar value.

SMILES_NOTATION	pKi
O=C(O)c1cc(SCCc2ccccc2)ccc1NS(=O)(=O)c1ccc(Br)cc1	6.09
CC(C)(C)c1ccc(N2CCN(S(=O)(=O)Nc3ccc(SCCC(=O)Nc4ccccc4)cc3C(=O)O)CC2)cc1	5.96
O=C(O)c1cc(SCCc2ccccc2)ccc1NS(=O)(=O)N1CCN(c2ccccc2)CC1	6.12
O=C(O)c1cc(SCCc2ccccc2)ccc1NS(=O)(=O)N1CCN(Cc2ccccc2)CC1	6.00

* * *

Each entry below carries its measured pKi, system: Induced myeloid leukemia cell differentiation protein Mcl-1 (Homo sapiens).
pKi: −log10 of the molar value.

SMILES_NOTATION	pKi
O=C(O)c1cc(SCCc2ccccc2)ccc1NS(=O)(=O)c1ccc(Br)cc1	6.09
O=C(CCSc1ccc(NS(=O)(=O)c2ccccc2)c(C(=O)O)c1)Nc1ccccc1	4.88
CC(C)(C)c1ccc(N2CCN(S(=O)(=O)Nc3ccc(SCCC(=O)Nc4ccccc4)cc3C(=O)O)CC2)cc1	6.02
